# Tested system: H1R-H450A (Homo sapiens, UniProt P35367, H450A)
# Sequence (P35367 whole entry H450A): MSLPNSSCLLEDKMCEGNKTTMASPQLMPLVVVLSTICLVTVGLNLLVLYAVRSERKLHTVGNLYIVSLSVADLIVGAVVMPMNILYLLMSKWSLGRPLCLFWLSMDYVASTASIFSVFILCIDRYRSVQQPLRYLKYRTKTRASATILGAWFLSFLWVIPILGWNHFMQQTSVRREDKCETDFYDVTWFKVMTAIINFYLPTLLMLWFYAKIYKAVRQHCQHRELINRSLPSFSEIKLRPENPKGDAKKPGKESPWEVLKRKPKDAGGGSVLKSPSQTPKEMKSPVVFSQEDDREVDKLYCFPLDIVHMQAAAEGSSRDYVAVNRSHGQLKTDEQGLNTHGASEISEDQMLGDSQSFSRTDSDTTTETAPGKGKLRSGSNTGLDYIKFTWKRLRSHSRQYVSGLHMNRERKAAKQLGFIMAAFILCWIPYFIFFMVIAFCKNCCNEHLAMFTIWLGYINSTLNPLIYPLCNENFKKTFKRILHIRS
# Test description: cell-based
Experimental endpoint: pIC50
Answers are plain numbers, as −log10 of the molar value.

Incoming: Which measured pIC50 value corresponds to `CN(c1nccc(=O)[nH]1)C1CCN(c2nc3ccccc3n2Cc2ccc(F)cc2)CC1` ?
Outgoing: 8.29

Data provenance is paper PMC10762250.
